- experimental-details: BSK_KF3CT_SRB: Viability Assessment in the BioMAP Diversity Plus: KF3CT Assay (AID 2283069);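 also: total protein by sulforhodamine B staining as a cytotoxicity measure; read 24 h after compound addition; fitted for both signal gain and loss against DMSO baseline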
- setup-conditions: primary human keratinocytes with fibroblasts
Active and inactive are the calls of the source. The calls were made as follows: active = hit-call score of the fitted dose curve at least 0.9, where 1 is the maximum; inactive = score below 0.9.
Valid outcomes are listed here; reply with one: 1 = active, 0 = inactive

Consider the following illustrative entries.
[[record]]
molecule = "CC(C)Oc1ccccc1O"
class_assignment = 0

[[record]]
molecule = "CC(=O)[C@H]1CC[C@H]2[C@@H]3CC=C4C[C@@H](O)CC[C@]4(C)[C@H]3CC[C@]12C"
class_assignment = 0

[[record]]
molecule = "CCCCCCCCCCCCCCCCCC(=O)OCC(CC)CCCC (stereo not drawn)"
class_assignment = 0

[[record]]
molecule = "CC(=O)OCCC(C)CC(C)(C)C (stereo not drawn)"
class_assignment = 0

[[record]]
molecule = "O=C1CCCCCCCCCCCCCCO1"
class_assignment = 0

[[record]]
molecule = "COC(=O)c1ccc(C)cc1"
class_assignment = 0

[[record]]
molecule = "CCCCCCCCCC=O"
class_assignment = 0

[[record]]
molecule = "C#C[C@]1(O)CC[C@H]2[C@@H]3CCC4=Cc5oncc5C[C@]4(C)[C@H]3CC[C@@]21C"
class_assignment = 0

[[record]]
molecule = "OC1OC[C@@H](O)[C@H](O)[C@H]1O (stereo partly drawn)"
class_assignment = 0

[[record]]
molecule = "O=P(c1ccccc1)(c1ccccc1)c1ccccc1"
class_assignment = 0


Inquiry: Hi, do you know how `Nc1cc([N+](=O)[O-])ccc1O` came out in this test?
Reply text: 0

Inquiry: Also need `COc1cc(C=O)ccc1OC(=O)C(C)C` , thanks.
Reply text: 0

Inquiry: Also check `Cc1cc(C2(c3cc(C)c(O)cc3C)OS(=O)(=O)c3ccccc32)c(C)cc1O`
Reply text: 0

---

- experimental-details: ATG_AP_1_CIS: Attagene CIS-FACTORIAL HepG2 Assay for human Activator Protein 1 (AP-1) (AID 2282931)
- setup-conditions: HepG2 Attagene cis-factorial AP-1 reporter mRNA; actives raise or lower the signal
Active and inactive are the calls of the source. Rule for the calls: active = hit-call score of the fitted dose curve at least 0.9, where 1 is the maximum; inactive = score below 0.9.
Reply using exactly one outcome from YES = active, NO = inactive

// below: answered compounds
[[record]]
compound = "CCCCCCCCC=O"
class_assignment = "NO"

[[record]]
compound = "CC(C)(C#N)c1cc(Cn2cncn2)cc(C(C)(C)C#N)c1"
class_assignment = "NO"

[[record]]
compound = "CC(C#N)(CCC(=O)O)N=NC(C)(C#N)CCC(=O)O (stereo unspecified)"
class_assignment = "NO"


Inquiry: Test call for this compound, please: `CCCCCCOC(=O)CC`
Reply text: NO

Inquiry: Same again, this time with CCC(=O)/C=C/C1C(C)=CCCC1(C)C (stereo unspecified)
Reply text: NO

Inquiry: And CC(C)=CCCC(C)CC=O (stereo unspecified) ?
Reply text: NO

Inquiry: Next compound: `Sc1nc(S)nc(S)n1`
Reply text: NO

Inquiry: Then this compound: `CC1=CC(=O)NS(=O)(=O)O1`
Reply text: NO

---

- experimental-details: ATG_M_06_CIS: Attagene CIS-FACTORIAL HepG2 Assay for M06 Transcription Factor (Internal Marker) (AID 2282950)
- setup-conditions: HepG2 Attagene CIS-FACTORIAL M06 internal marker reporter; actives raise or lower the signal
The source made the active and inactive calls. The calls were made as follows: active = hit-call score of the fitted dose curve at least 0.9, where 1 is the maximum; inactive = score below 0.9.
endpoint-label: outcome

Please review the following examples before continuing.
[[record]]
compound = "CC[Si](OC(C)=O)(OC(C)=O)OC(C)=O"
readout_value = "inactive"

[[record]]
compound = "COC(=O)Cc1cccc2ccccc12"
readout_value = "inactive"

[[record]]
compound = "CCCCN"
readout_value = "inactive"

[[record]]
compound = "S=C(S)NCCNC(=S)S"
readout_value = "inactive"

[[record]]
compound = "C=C(C)C(=O)Nc1ccc(Cl)c(Cl)c1"
readout_value = "inactive"


Inquiry: Please report the recorded outcome for CCC(=O)/C=C/C1C(C)=CCCC1(C)C (stereo unspecified) .
Reply text: inactive

Inquiry: And for `NCCCCCCN` ?
Reply text: inactive

Inquiry: // repeat for `NCCOCCO` and report
Reply text: inactive

Inquiry: Queued: `Cc1ccc(O)c(C(C)(C)C)c1`
Reply text: inactive

Inquiry: Lookup `CC(=O)c1c(C)cc(C(C)(C)C)cc1C`
Reply text: inactive

Inquiry: Let us now turn to `COc1cc(C=O)ccc1OC(=O)C(C)C`
Reply text: inactive

Inquiry: Note, next up: `CCCCCC=CCC(=O)OC`
Reply text: inactive

Inquiry: Another: `Clc1cccc(Cl)n1`
Reply text: inactive

Inquiry: Param item: `C=C(C)C(=O)OCc1ccccc1`
Reply text: inactive

Inquiry: Same thing, different compound: `CC(=O)C(C)=O`
Reply text: inactive

Inquiry: Consider next the compound `NNc1nc(-c2ccc(N)cc2)cs1` in the same way.
Reply text: inactive
